Listing of entries alongside the reported log10(MIC).
# System: Mycobacterium avium 330/88
# Assay Name: Antimycobacterial MIC micromethod
# Format: cell-based
# Applied Conditions: 330/88, 504 h, 21 d
Quantity Name: log10(MIC) (log10 of the value in µM)

# Molecule, log10(MIC)
measured = [
    ("Nc1ccc(C(=O)O)c(O)c1 [PAS, p-aminosalicylic acid, reference compound]", 2.10),
    ("O=C(Oc1cc(Cl)ccc1C(=O)Nc1ccc(F)cc1)c1ccc(C(F)(F)F)cc1 [1n]", 0.60),
    ("O=C(Oc1cc(Cl)ccc1C(=O)Nc1cccc(Cl)c1)c1ccc(C(F)(F)F)cc1 [1b]", 0.90),
    ("O=C(Oc1ccc(Cl)cc1C(=O)Nc1ccc(F)cc1)c1ccc(C(F)(F)F)cc1 [1m]", 1.51),
    ("O=C(Oc1ccc(Cl)cc1C(=O)Nc1cccc(Cl)c1)c1ccc(C(F)(F)F)cc1 [1a]", 1.20),
    ("O=C(Oc1cc(Cl)ccc1C(=O)Nc1ccc(Br)cc1)c1ccc(C(F)(F)F)cc1 [1j]", 0.90),
    ("O=C(Oc1ccc(Cl)cc1C(=O)Nc1ccc(Cl)cc1)c1ccc(C(F)(F)F)cc1 [1c]", 0.90),
    ("O=C(Oc1ccc(Br)cc1C(=O)Nc1ccc(C(F)(F)F)cc1)c1ccc(C(F)(F)F)cc1 [1r]", 0.60),
    ("O=C(Oc1ccc(Cl)cc1C(=O)Nc1ccc(Br)cc1)c1ccc(C(F)(F)F)cc1 [1i]", 0.90),
    ("O=C(Oc1ccc(Cl)cc1C(=O)Nc1ccc(Cl)c(Cl)c1)c1ccc(C(F)(F)F)cc1 [1e]", 0.60),
    ("O=C(Oc1cc(Cl)ccc1C(=O)Nc1ccc(Cl)c(Cl)c1)c1ccc(C(F)(F)F)cc1 [1f]", 0.90),
    ("O=C(Oc1cc(Cl)ccc1C(=O)Nc1ccc(C(F)(F)F)cc1)c1ccc(C(F)(F)F)cc1 [1p]", 0.90),
    ("O=C(Oc1ccc(Cl)cc1C(=O)Nc1ccc(C(F)(F)F)cc1)c1ccc(C(F)(F)F)cc1 [1o]", 0.60),
    ("O=C(Oc1cc(Cl)ccc1C(=O)Nc1cccc(Br)c1)c1ccc(C(F)(F)F)cc1 [1h]", 1.20),
    ("O=C(Oc1ccc(Cl)cc1C(=O)Nc1cccc(C(F)(F)F)c1)c1ccc(C(F)(F)F)cc1 [1q]", 1.20),
    ("O=C(Oc1cc(Cl)ccc1C(=O)Nc1ccc(Cl)cc1)c1ccc(C(F)(F)F)cc1 [1d]", 0.90),
]
